target-under-test: human 5-HT2A receptor (Homo sapiens (Human), UniProt P28223)
measurement-description: 5HT2A functional assay (agonism)
Assay type: cell-based
study-conditions: HEK-293

- input-smiles: "COc1ccc2[nH]cc(CCN(C)Cc3ccccc3OC)c2c1"
  target-under-test: "human 5-HT2A receptor (Homo sapiens (Human), UniProt P28223)"
  units-of-measure: "µM"
  EC50: 0.52

====

target-under-test: human 5-HT2A receptor (Homo sapiens (Human), UniProt P28223)
measurement-description: 5HT2A competitive binding assay (Eurofins Cerep)
study-conditions: Table 1, all units nM; read-out: 2A Binding
Catalogue of Ki readings, one per entry.
readout-label: Ki (nM)

- compound: "C=CCN(CCc1c[nH]c2ccccc12)Cc1cccc(OC)c1"
  test-result: 28
- compound: "COc1ccc2[nH]cc(CCN(Cc3ccccc3OC)C(C)C)c2c1"
  test-result: 277
- compound: "CN(CCc1c[nH]c2ccccc12)Cc1cccc(CO)c1"
  test-result: 59
- compound: "CCc1cccc(CN(C)CCc2c[nH]c3ccccc23)c1"
  test-result: 5
- compound: "CN(CCc1c[nH]c2ccccc12)Cc1cccc(Br)c1"
  test-result: 11
- compound: "COc1cccc(CN(CCc2c[nH]c3ccccc23)C(C)C)c1OC"
  test-result: 2630
- compound: "C=C(C)CN(CCc1c[nH]c2ccccc12)Cc1cccc(OC)c1"
  test-result: 135
- compound: "CN(CCc1c[nH]c2ccccc12)Cc1ccccc1"
  test-result: 60
- compound: "C#Cc1cccc(CN(C)CCc2c[nH]c3ccccc23)c1"
  test-result: 6
- compound: "C/C=C\\CN(CCc1c[nH]c2ccccc12)Cc1cccc(OC)c1"
  test-result: 31
- compound: "CN(CCc1c[nH]c2ccccc12)Cc1cccc2c1OCO2"
  test-result: 73
- compound: "COc1cc(OC)c(CN(CCc2c[nH]c3ccc(OC)cc23)C(C)C)c(OC)c1 [B, reference compound]"
  test-result: 4600
- compound: "COc1ccc(CN(C)CCc2c[nH]c3ccccc23)cc1"
  test-result: 280
- compound: "C=CCN(CCc1c[nH]c2ccc(OC)cc12)Cc1ccccc1OC"
  test-result: 76

====

target-under-test: 5HT2B receptor (Homo sapiens, UniProt P41595)
Sequence (P41595 whole entry): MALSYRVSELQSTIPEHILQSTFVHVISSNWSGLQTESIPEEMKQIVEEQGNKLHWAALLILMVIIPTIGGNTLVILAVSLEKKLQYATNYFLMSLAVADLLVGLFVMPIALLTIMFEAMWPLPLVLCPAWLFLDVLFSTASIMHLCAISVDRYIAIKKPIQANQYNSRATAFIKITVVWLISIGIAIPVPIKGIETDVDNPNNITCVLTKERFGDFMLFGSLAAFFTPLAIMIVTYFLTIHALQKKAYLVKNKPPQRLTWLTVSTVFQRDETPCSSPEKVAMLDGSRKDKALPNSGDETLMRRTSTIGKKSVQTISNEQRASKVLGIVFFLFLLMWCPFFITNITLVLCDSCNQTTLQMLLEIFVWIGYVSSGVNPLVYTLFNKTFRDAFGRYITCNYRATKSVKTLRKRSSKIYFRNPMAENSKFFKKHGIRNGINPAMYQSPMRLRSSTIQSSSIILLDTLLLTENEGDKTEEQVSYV
measurement-description: 5HT2B (IP1) functional agonist assay
Type: cell-based
study-conditions: Example 10; read-out: 5HT2B functional agonist mode IC50
pIC50: −log10 of the molar value.
readout-label: pIC50

- input-smiles: "COc1cccc(CN(C)CCc2c[nH]c3ccccc23)c1"
  test-result: 5.98
